Ref: patent US11185531B2

target: human PRMT8 (Homo sapiens); construct: Full-length human PRMT8 (NM_019854.4) isoform 1 transcript clone; GST (N, cleaved yes); assay: PRMT8 Biochemical Assay (3H-SAM Flashplate, peptide substrate); conditions: 30 min preincubation
Sequence (Q9NR22 whole entry, canonical isoform): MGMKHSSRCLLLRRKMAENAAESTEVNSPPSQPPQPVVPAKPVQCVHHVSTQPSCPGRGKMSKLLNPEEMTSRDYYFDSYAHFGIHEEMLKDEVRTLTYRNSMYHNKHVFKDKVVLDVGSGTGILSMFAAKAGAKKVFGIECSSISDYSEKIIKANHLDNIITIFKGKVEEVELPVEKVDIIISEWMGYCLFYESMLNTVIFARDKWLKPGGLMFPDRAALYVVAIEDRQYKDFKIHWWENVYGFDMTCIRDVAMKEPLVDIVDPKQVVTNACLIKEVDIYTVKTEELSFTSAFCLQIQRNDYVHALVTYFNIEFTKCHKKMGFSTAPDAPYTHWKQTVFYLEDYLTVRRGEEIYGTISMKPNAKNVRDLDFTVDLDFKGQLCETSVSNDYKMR
Hi there, I'd appreciate the recorded IC50 for every entry that follows.

Request: // fetch IC50; item: `CN(CCN)Cc1c[nH]nc1C1CCCC1` ; system: human PRMT8 (Homo sapiens)
Result: > 10000 nM

Request: State, for human PRMT8 (Homo sapiens), measured IC50 of the compound listed here: `CN(CCN)Cc1c[nH]nc1C1CCC(C)(C)CC1`
Result: 101 to 1000 nM

Request: Write down the reported IC50 (system: human PRMT8 (Homo sapiens)) of `CNCCN(C)Cc1c[nH]nc1C#Cc1ccccc1`
Result: 101 to 1000 nM

Request: Supply IC50 measured with human PRMT8 (Homo sapiens) for `CN(CCN)Cc1c[nH]nc1/C=C/c1ccc(C(F)(F)F)cc1` .
Result: < 100 nM

Request: Check human PRMT8 (Homo sapiens) data and give IC50 for `CN(CCN)Cc1c[nH]nc1/C=C/c1cccc(F)c1` .
Result: 101 to 1000 nM

Request: Determine reported IC50 for `CN(CCN)Cc1n[nH]cc1C1CCCCC1` ; test system: human PRMT8 (Homo sapiens).
Result: 101 to 1000 nM

Request: Would you please give the reported IC50 of `Cc1n[nH]cc1CN(C)CCN` with human PRMT8 (Homo sapiens)?
Result: 3010 to 10000 nM

Request: // fetch IC50; item: `CN(CCN)Cc1c[nH]nc1C1CCCCC1` ; system: human PRMT8 (Homo sapiens)
Result: 101 to 1000 nM

Request: Consider the compound `COc1cc(/C=C/c2n[nH]cc2CN(C)CCN)cc(OC)c1` tested on human PRMT8 (Homo sapiens); state its IC50.
Result: 101 to 1000 nM

Request: Quote IC50 with test system human PRMT8 (Homo sapiens) for `Cc1ccc(/C=C/c2n[nH]cc2CN(C)CCN)cc1`
Result: 101 to 1000 nM

Request: Return reported IC50 for target or system human PRMT8 (Homo sapiens), item `CNCCN(C)Cc1c[nH]nc1C1CCNCC1` .
Result: 101 to 1000 nM

* * *

system: mono-methyl arginine in RKO cells; assay: RKO Methylation Assay, In Cell Western for mono-methyl arginine; type: cell-based; details: Homo sapiens, 72 hours, percent activation of mono-methyl arginine signal
Experimental Readout: EC30

Request: Dear colleague, please send me the reported EC30 for `CN(CCN)Cc1c[nH]nc1C1CCCC1` when you can.
Result: > 12 µM

Request: State its EC30: `CNCCN(C)Cc1c[nH]nc1C1CCN(C(=O)C(C)C)CC1`
Result: < 3 µM

Request: Return value of EC30 for input `CNCCN(C)Cc1c[nH]nc1C1CCN(C)CC1` , no commentary.
Result: > 12 µM

Request: For `CN(CCN)Cc1c[nH]nc1C1CCC1` , write its EC30.
Result: > 12 µM

Request: Answer with the recorded EC30 for the compound listed here: `CN(CCN)Cc1c[nH]nc1C1CCC(C)(C)CC1`
Result: < 3 µM

Request: # return recorded EC30 for input `CN(CCN)Cc1c[nH]nc1C1=CCCC1`
Result: 3.01 to 12 µM

Request: State, in one line, measured EC30 of `CNCCN(C)Cc1c[nH]nc1C1CCN(C(=O)Cc2ccccc2)CC1`
Result: < 3 µM

Request: Please supply the value of reported EC30 for the item `CN(CCN)Cc1n[nH]cc1C1CCC(C)(C)CC1`
Result: < 3 µM

Request: Could you please provide reported EC30 for `CN(CCN)Cc1c[nH]nc1/C=C/Cc1ccccc1` ? Thanks!
Result: < 3 µM

Request: Dear colleague, please send me the reported EC30 for CN(CCN)Cc1n[nH]cc1C1CCC(N2CCOCC2)CC1 (centres unmarked) when you can.
Result: 3.01 to 12 µM

Request: Report EC30 for `Cc1n[nH]cc1CN(C)CCN`
Result: > 12 µM

Request: Quick one: give measured EC30 for `CNCCN(C)Cc1c[nH]nc1C1CCN(CC(C)C)CC1`
Result: < 3 µM

Request: Identify measured EC30 associated with `CN(CCN)Cc1c[nH]nc1C1=CCOCC1`
Result: > 12 µM

Request: Please give measured EC30 of the following entry: `CC(C)c1n[nH]cc1CN(C)CCN`
Result: > 12 µM

Request: Item CC1CCC(c2c[nH]nc2CN(C)CCN)CC1 (centres unmarked) : provide EC30
Result: < 3 µM

Request: Give recorded EC30. `CN(CCN)Cc1c[nH]nc1C1CCCCC1`
Result: < 3 µM

Request: Fill in reported EC30 for this entry: CN(CCN)Cc1c[nH]nc1C1CCC(N2CCOCC2)CC1 (centres unmarked)
Result: < 3 µM

Request: Item `CN(CCN)Cc1c[nH]nc1C(C)(C)C` : provide EC30
Result: > 12 µM

Request: Supply recorded EC30 for `CCCc1n[nH]cc1CN(C)CCN` here.
Result: > 12 µM

Request: Supply measured EC30 of `CNCCN(C)Cc1c[nH]nc1C1CCNCC1` in your reply.
Result: > 12 µM

Request: Look up and state reported EC30 for `CN(CCN)Cc1c[nH]nc1CCc1ccc(F)cc1`
Result: < 3 µM

Request: Identify EC30 associated with the compound CC1CCC(c2n[nH]cc2CN(C)CCN)CC1 (centres unmarked)
Result: < 3 µM

Request: For the compound `CN(CCN)Cc1n[nH]cc1C1CCCCC1` , give its measured EC30 value.
Result: 3.01 to 12 µM
